- Test Details: Pharmacokinetics in humans, MRTX1133 formulation, oral, single and multiple doses
- Format: in vivo
- Condition: human, plasma, po, 400 mg, single oral dose of 400 mg, fasted; 2 h; mean of subjects; read-out: Plasma concentration, Mean
Observable: concentration at 2 h (ng/mL)
Give a bare numeral; the unit ng/mL is implied.

Q: Read off the recorded concentration at 2 h for `C#Cc1c(F)ccc2cc(O)cc(-c3ncc4c(N5C[C@H]6CC[C@@H](C5)N6)nc(OC[C@@]56CCCN5C[C@H](F)C6)nc4c3F)c12`
A: 83.3

----------
- Test Details: Pharmacokinetics in humans, MRTX1133 formulation, oral, single and multiple doses
- Type: in vivo
- Condition: human, plasma, po, 800 mg, single oral dose of 800 mg, fasted; 2 h; mean of subjects; read-out: Plasma concentration, Mean
Observable: concentration at 2 h (µg/mL)
Give a bare numeral; the unit µg/mL is implied.

Q: Read off the recorded concentration at 2 h for C#Cc1c(F)ccc2cc(O)cc(-c3ncc4c(N5C[C@H]6CC[C@@H](C5)N6)nc(OC[C@@]56CCCN5C[C@H](F)C6)nc4c3F)c12 [MRTX1133]
A: 0.117

The origin of these recorded values is patent US20250120981A1.
